# test system: chymotrypsin-like (ChT-L) activity of human 20S proteasome (Homo sapiens, UniProt P28074)
# Construct: 20S proteasome, isolated and purified from human erythrocytes; purchased Biomol GmbH, Hamburg, Germany; host or cells: human erythrocytes (native complex)
# experiment description: Inhibition of chymotrypsin-like activity of 20S proteasome (Suc-Leu-Leu-Val-Tyr-AMC)
# Format: biochemical
# applied conditions: 10 µM, over 10 min
Measured ChT-L inhibition at 10 µM by item
Reply with just the number (in %).

Q: Quick check: ChT-L inhibition at 10 µM on chymotrypsin-like (ChT-L) activity of human 20S proteasome (Homo sapiens, UniProt P28074), item `CC[PH](CC)(CC)[Ag][I]` ?
A: 25

Q: Quick check: ChT-L inhibition at 10 µM on chymotrypsin-like (ChT-L) activity of human 20S proteasome (Homo sapiens, UniProt P28074), item `CC[PH](CC)(CC)[Ag][Cl]` ?
A: 28

Q: Quick check: ChT-L inhibition at 10 µM on chymotrypsin-like (ChT-L) activity of human 20S proteasome (Homo sapiens, UniProt P28074), item `CC[PH](CC)(CC)[Ag][Br]` ?
A: 22

Q: Quick check: ChT-L inhibition at 10 µM on chymotrypsin-like (ChT-L) activity of human 20S proteasome (Homo sapiens, UniProt P28074), item CCP(CC)CC.CCP(CC)CC.O=[N+]([O-])[O-].[Ag+] [[Ag(PEt3)2]NO3] ?
A: 38
